The origin of these recorded values is paper PMC12389534.

- Test system: DA
- protocol notes: Brain DA level (fluorometric)
- Format: in vivo, rat
- test context: AlCl3-induced AD rats
measured endpoint: elevation of DA levels
Give the number first and the unit second.

stdin: If you can, please state the reported elevation of DA levels value of O=C1CN(c2ccccc2)C(=O)c2c(sc3c2CCCCC3)O1 [Compound 11] .
stdout: 4.6 fold

stdin: If you can, please state the reported elevation of DA levels value of CCOc1ccc(N2CC(=O)Oc3sc4c(c3C2=O)CCCCC4)cc1 [Compound 14] .
stdout: 4.3 fold

stdin: If you can, please state the reported elevation of DA levels value of COc1ccc(N2CC(=O)Oc3sc4c(c3C2=O)CCCCC4)cc1 [Compound 16] .
stdout: 4.4 fold

stdin: If you can, please state the reported elevation of DA levels value of O=C1CN(c2ccc(O)cc2)C(=O)c2c(sc3c2CCCCC3)O1 [Compound 15] .
stdout: 3.8 fold

stdin: If you can, please state the reported elevation of DA levels value of N#Cc1ccc(N2CC(=O)Oc3sc4c(c3C2=O)CCCCC4)cc1 [Compound 13] .
stdout: 4.1 fold

stdin: If you can, please state the reported elevation of DA levels value of O=C1CN(c2ccc(Cl)cc2)C(=O)c2c(sc3c2CCCCC3)O1 [Compound 12] .
stdout: 3.2 fold

* * *

- System: BDNF
- protocol notes: Brain BDNF level (ELISA)
- Type: in vivo, rat
- test context: brain tissue, AlCl3-induced AD rats; mean ± SE, n = 6
measured endpoint: BDNF (ng/mL)

stdin: If you can, please state the reported BDNF (ng/mL) value of `N#Cc1ccc(N2CC(=O)Oc3sc4c(c3C2=O)CCCCC4)cc1` .
stdout: 104.9 ± 0.07 ^abc ng/mL

stdin: If you can, please state the reported BDNF (ng/mL) value of `O=C1CN(c2ccccc2)C(=O)c2c(sc3c2CCCCC3)O1` .
stdout: 127.3 ± 0.01 ^abc ng/mL

stdin: If you can, please state the reported BDNF (ng/mL) value of `CCOc1ccc(N2CC(=O)Oc3sc4c(c3C2=O)CCCCC4)cc1` .
stdout: 115.8 ± 0.07 ^abc ng/mL

stdin: If you can, please state the reported BDNF (ng/mL) value of `CCOC(=O)c1c(OC(=O)CCl)sc2c1CCCCC2` .
stdout: 75.75 ± 0.01 ^abc ng/mL

stdin: If you can, please state the reported BDNF (ng/mL) value of `COc1ccc(N2CC(=O)Oc3sc4c(c3C2=O)CCCCC4)cc1` .
stdout: 134.8 ± 0.01 ^abc ng/mL

stdin: If you can, please state the reported BDNF (ng/mL) value of `CCOC(=O)c1c(O)sc2c1CCCCC2` .
stdout: 64.95 ± 0.01 ^abc ng/mL

* * *

- System: Caspase-1
- protocol notes: Caspase-1 gene expression (RT-qPCR)
- Type: in vivo, rat
- test context: gene expression; AlCl3-induced AD rats; mean ± SE, n = 6
measured endpoint: Caspase-1

stdin: If you can, please state the reported Caspase-1 value of `N#Cc1ccc(N2CC(=O)Oc3sc4c(c3C2=O)CCCCC4)cc1` .
stdout: 3.85 ± 0.070 ^abc

stdin: If you can, please state the reported Caspase-1 value of `COc1ccc(N2CC(=O)Oc3sc4c(c3C2=O)CCCCC4)cc1` .
stdout: 5.04 ± 0.130 ^abc

stdin: If you can, please state the reported Caspase-1 value of `O=C1CN(c2ccccc2)C(=O)c2c(sc3c2CCCCC3)O1` .
stdout: 5.92 ± 0.040 ^abc

stdin: If you can, please state the reported Caspase-1 value of `CCOC(=O)c1c(OC(=O)CCl)sc2c1CCCCC2` .
stdout: 6.46 ± 0.120 ^abc
